- System under test: T1, human αvβ8-Integrin (human, UniProt P06756 31-992; P26012 43-684)
- T1 construct: Soluble integrin bought from R&D
- T1 sequence (P06756 31-992 limits assumed, chain 1 of 2): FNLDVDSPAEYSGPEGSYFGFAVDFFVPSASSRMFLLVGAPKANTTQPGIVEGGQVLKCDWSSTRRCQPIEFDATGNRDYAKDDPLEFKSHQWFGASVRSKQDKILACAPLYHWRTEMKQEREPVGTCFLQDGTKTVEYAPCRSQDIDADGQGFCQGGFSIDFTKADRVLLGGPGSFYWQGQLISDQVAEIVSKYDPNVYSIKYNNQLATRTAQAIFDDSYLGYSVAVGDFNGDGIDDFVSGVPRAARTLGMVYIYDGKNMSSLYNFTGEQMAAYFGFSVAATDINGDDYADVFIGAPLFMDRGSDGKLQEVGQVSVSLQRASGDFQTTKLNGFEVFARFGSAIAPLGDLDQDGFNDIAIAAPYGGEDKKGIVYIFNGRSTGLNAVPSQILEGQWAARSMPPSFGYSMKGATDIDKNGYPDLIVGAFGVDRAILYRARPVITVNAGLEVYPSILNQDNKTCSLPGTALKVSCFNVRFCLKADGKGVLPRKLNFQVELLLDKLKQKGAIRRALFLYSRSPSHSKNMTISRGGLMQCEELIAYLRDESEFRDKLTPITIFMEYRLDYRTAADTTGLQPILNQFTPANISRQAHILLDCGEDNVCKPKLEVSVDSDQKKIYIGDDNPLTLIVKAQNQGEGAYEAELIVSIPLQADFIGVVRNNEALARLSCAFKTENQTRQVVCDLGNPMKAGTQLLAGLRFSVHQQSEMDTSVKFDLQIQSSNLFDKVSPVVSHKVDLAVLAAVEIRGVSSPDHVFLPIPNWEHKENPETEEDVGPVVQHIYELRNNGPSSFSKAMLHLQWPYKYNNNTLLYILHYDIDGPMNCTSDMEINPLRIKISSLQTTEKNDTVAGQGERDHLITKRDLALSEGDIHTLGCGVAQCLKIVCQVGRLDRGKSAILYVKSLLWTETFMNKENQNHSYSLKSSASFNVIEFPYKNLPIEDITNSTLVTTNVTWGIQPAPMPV
- T1 sequence (P26012 43-684 limits assumed, chain 2 of 2): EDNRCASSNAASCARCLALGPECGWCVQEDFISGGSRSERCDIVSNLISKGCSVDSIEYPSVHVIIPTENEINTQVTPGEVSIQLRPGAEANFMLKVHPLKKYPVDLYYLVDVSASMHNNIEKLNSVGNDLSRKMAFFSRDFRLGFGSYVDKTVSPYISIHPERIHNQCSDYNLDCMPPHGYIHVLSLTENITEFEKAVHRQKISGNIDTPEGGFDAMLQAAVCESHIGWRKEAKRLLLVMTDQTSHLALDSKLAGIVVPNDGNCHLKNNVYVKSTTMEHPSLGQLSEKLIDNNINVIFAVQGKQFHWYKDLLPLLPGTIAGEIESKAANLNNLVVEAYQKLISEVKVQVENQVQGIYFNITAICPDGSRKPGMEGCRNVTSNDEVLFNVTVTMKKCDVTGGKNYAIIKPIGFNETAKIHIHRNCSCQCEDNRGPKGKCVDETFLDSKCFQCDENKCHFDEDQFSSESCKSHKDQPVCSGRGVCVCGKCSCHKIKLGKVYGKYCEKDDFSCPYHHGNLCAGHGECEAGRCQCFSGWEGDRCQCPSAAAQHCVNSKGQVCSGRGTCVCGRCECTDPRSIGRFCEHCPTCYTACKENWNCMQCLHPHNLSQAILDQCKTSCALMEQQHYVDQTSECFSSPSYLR
- Method summary: solid-phase competition assay; value given for the internal standard
pIC50: −log10 of the molar value.

Binder | pIC50
RTDLDSLRT (Internal standard for αvβ6 and αvβ8) [linear peptide RTDLDSLRT] | 7.00 to 8.10
